# TESTED SYSTEM: T1, factor XIa (UniProt P03951 19-625)
# T1 construct: also called fXIa
# EXPERIMENT: chromogenic test (S-2366), IC50 converted by Cheng-Prusoff
ASSAY ENDPOINT: pKi
The scale used: pKi is minus the common logarithm of the concentration in molar units.

{"columns": ["BINDER", "pKi"],
 "data": [
  ["corn trypsin inhibitor (other, UniProt P01088 29-138, looked up, Isolated from corn; also called CTI) SAGTSCVPGWAIPHNPLPSCRWYVTSRTCGIGPRLPWPELKRRCCRELADIPAYCRCTALSILMDGAIPPGPDAQLEGRLEDLPGCPREVQRGFAATLVTEAECNLATIS", 4.82]
]}

Shift focus to the following entry.
Prompt line: Recorded pKi of RICPRILMECSSDSDCLAECICLENGFCG (Chemically synthesised) [Luffa cylindrica trypsin inhibitor, LCTI-III] , please.
Response line: 4.52
